# Measurement notes: inhibitors of MT1-MMP promoter transcription, cell-based, luciferase reporter, luminescence (AID 618);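 further: actives suppress MT1-MMP promoter-driven transcription so potencies describe inhibitors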
# Measurement conditions: MT1-MMP promoter luciferase reporter cells
Among all 87,000 compounds or so, about 540 (0.62%) were called active. How the calls were made is not given here. The full list was thinned out, with actives kept by preference. Results with a measured potency or affinity are listed apart.
Outcomes: active, inactive

>>> answer_label("Cc1ccc(C)c(C(=O)CC2(O)C(=O)Nc3ccccc32)c1 (stereo not drawn)")
"inactive"
>>> answer_label("Cc1nn2c(C(F)(F)F)cc(-c3ccc(Cl)cc3)nc2c1C(=O)N1CCOCC1")
"inactive"
>>> answer_label("CCN(CC)S(=O)(=O)c1ccc(NC(=O)CN(c2ccc(OC)cc2OC)S(C)(=O)=O)cc1")
"inactive"
>>> answer_label("COc1ccc(S(=O)(=O)n2nc(-c3cc(OC)c(OC)c(OC)c3)cc2N)cc1OC")
"inactive"
>>> answer_label("COc1ccc(NC(=O)C2C(=O)N(C)C3(C)CC2c2ccccc2O3)cc1 (stereo not drawn)")
"inactive"
>>> answer_label("c1ccc(-n2nnc3c(N4CCOCC4)ncnc32)cc1")
"active"
>>> answer_label("COC(=O)c1[nH]c2cc(C)ccc2c1NC(=O)CN1CCCc2ccccc21")
"inactive"
>>> answer_label("Cc1cc(C)c(S(=O)(=O)N2CCCCC2)c(C)c1-n1ncnn1")
"inactive"
>>> answer_label("CC(Cc1ccccc1)NC(=O)C1CCCNC1=O (stereo not drawn)")
"inactive"
>>> answer_label("Cc1cc(NC(=O)CS(=O)(=O)c2cn(Cc3ccc(F)cc3)c3ccccc23)no1")
"inactive"
>>> answer_label("COc1ccc(-c2cc(N)n(S(=O)(=O)c3c(F)c(F)c(F)c(F)c3F)n2)cc1OC")
"active"
>>> answer_label("S=c1sc2c(N3CCOCC3)ncnc2n1-c1ccccc1")
"inactive"
>>> answer_label("Nc1nnnn1/N=C/c1cccc(OCc2ccccc2Cl)c1")
"inactive"
>>> answer_label("CCOC(=O)N1CCN(C(=O)Cn2cc3c(n2)CCCC3)CC1")
"inactive"
>>> answer_label("O=C(COc1ccc(Cl)cc1Cl)Nc1ccc(Cl)cn1")
"inactive"
>>> answer_label("CCCNC(=O)NC(C)C12CC3CC(CC(C3)C1)C2 (stereo not drawn)")
"inactive"
>>> answer_label("CCOC(=O)N1CCC(NC(=O)c2ccc3c(c2)sc2nc(-c4cccc(OC)c4)cn23)CC1")
"inactive"
>>> answer_label("COc1ccc(OC)c(S(=O)(=O)n2nc(-c3ccccc3)cc2N)c1")
"inactive"
>>> answer_label("Cc1nn(C)cc1C=NCCOCc1ccccc1")
"inactive"
>>> answer_label("C=CCNC(=O)C1CCN(c2nc(C)cc(-c3ccccc3)n2)CC1")
"inactive"
>>> answer_label("O=C(NC1CCN(Cc2ccccc2)CC1)C1CCN(S(=O)(=O)c2cccc3cccnc23)CC1")
"inactive"
>>> answer_label("Cc1ccc(C(=O)N(c2ccccn2)C(C)c2ccco2)cc1 (stereo not drawn)")
"inactive"
>>> answer_label("O=C1CCCC2=C1C(Cc1ccccc1)C1=C(CCCC1=O)O2")
"inactive"

###

# Measurement notes: inhibitors of MT1-MMP promoter transcription, cell-based, luciferase reporter, luminescence (AID 618);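 further: actives suppress MT1-MMP promoter-driven transcription so potencies describe inhibitors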
# Measurement conditions: MT1-MMP promoter luciferase reporter cells
Out of some 87,000 compounds screened, about 540 (0.62%) were called active. The rule behind the calls is not given here. The entries come from a sample that favours actives as a whole. Results with a measured potency or affinity are listed apart.
Outcome codes: Yes for active, No for inactive

>>> answer_label("CC(C)N=Cc1c(O)[nH]c2ccccc12")
"No"
>>> answer_label("COc1cc(-c2nc(-c3ccccn3)no2)cc(OC)c1OC")
"No"
>>> answer_label("O=C(CSc1nnc(COc2ccc(Cl)cc2)o1)N1c2ccccc2CCc2ccccc21")
"Yes"
>>> answer_label("c1ccc(-c2noc(-c3cccc4ccccc34)n2)cc1")
"No"
>>> answer_label("CCOc1cc(/C=N/n2cnnc2)cc(Br)c1O")
"No"
>>> answer_label("c1ccc2c(-c3nc(-c4ccncc4)no3)cccc2c1")
"No"
